Target: HTRA1-1 (Homo sapiens, UniProt Q92743)
Sequence (Q92743 365-467 limits assumed): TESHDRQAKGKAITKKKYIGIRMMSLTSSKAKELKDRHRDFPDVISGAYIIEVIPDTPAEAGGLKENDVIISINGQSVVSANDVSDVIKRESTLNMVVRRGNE
property.measured: Kd (µM)
Numbers only, in µM.

[in] Returns the measured Kd for the input molecule. Input: CC[C@H](C)[C@H](NC(=O)[C@H](CCC(N)=O)NC(=O)[C@@H](NC(=O)[C@H](Cc1c[nH]cn1)NC(=O)[C@H](CCC(N)=O)NC(=O)[C@H](CC(=O)O)NC(=O)[C@H](CCC(=O)O)NC(=O)[C@H](CC(=O)O)NC(=O)CCC(=O)NCCCOCCOCCOCCCNC(=O)CCCC[C@@H]1SC[C@@H]2NC(=O)N[C@@H]21)[C@@H](C)O)C(=O)N[C@H](C(=O)N[C@@H](CCCCNC(C)=O)C(=O)N[C@H](C(=O)O)C(C)C)[C@@H](C)O
[out] 10.2

* * *

Task for the reader: assign each of the following compounds its reported BI.
Tested on: 266 human PDZ domains (PDZome)
Experiment: Holdup assay (chromatographic retention, PDZome-binding profile, BI)
Parameters: key: binding intensity: 0.00 = no binding, 1.00 = maximal binding
Conditions: PDZ domain PDZD2-5
*1 amine or outer side, *2 acyl side, *3 side chain or, on linkers, in order; H or OH if unused. Where a SMILES comes first, the peptide text is derived from it. The star is where a group is joined. X1 = O=C(CCCC[C@@H]1SC[C@@H]2NC(=O)N[C@@H]21)NCCCOCCOCCOCCCN*; Suc = O=C(CCC(=O)[*:2])[*:1]
Give bare numbers.

Please review the entries below; each comes with its answer.
CC[C@H](C)[C@H](NC(=O)[C@H](CCC(N)=O)NC(=O)[C@@H](NC(=O)[C@H](Cc1c[nH]cn1)NC(=O)[C@H](CCC(N)=O)NC(=O)[C@H](CC(=O)O)NC(=O)[C@H](CCC(=O)O)NC(=O)[C@H](CC(=O)O)NC(=O)[C@H](Cc1ccccc1)NC(=O)[C@@H]1CCCN1C(=O)CCC(=O)NCCCOCCOCCOCCCNC(=O)CCCC[C@@H]1SC[C@@H]2NC(=O)N[C@@H]21)[C@@H](C)O)C(=O)N[C@H](C(=O)N[C@@H](CCCCN)C(=O)N[C@H](C(=O)O)C(C)C)[C@@H](C)O [PTEN_13] ({X1-Suc}-PFDEDQHTQITKV-OH)
0.195
CC[C@H](C)[C@H](NC(=O)[C@H](CCC(N)=O)NC(=O)[C@@H](NC(=O)[C@H](Cc1c[nH]cn1)NC(=O)[C@H](CCC(N)=O)NC(=O)[C@H](CC(=O)O)NC(=O)[C@H](CCC(=O)O)NC(=O)[C@H](CC(=O)O)NC(=O)CCC(=O)NCCCOCCOCCOCCCNC(=O)CCCC[C@@H]1SC[C@@H]2NC(=O)N[C@@H]21)[C@@H](C)O)C(=O)N[C@H](C(=O)N[C@@H](CCCCNC(C)=O)C(=O)N[C@H](C(=O)O)C(C)C)[C@@H](C)O
-0.091
CC[C@H](C)[C@H](NC(=O)[C@H](CCC(N)=O)NC(=O)[C@@H](NC(=O)[C@H](Cc1c[nH]cn1)NC(=O)[C@H](CCC(N)=O)NC(=O)[C@H](CC(=O)O)NC(=O)[C@H](CCC(=O)O)NC(=O)[C@H](CC(=O)O)NC(=O)CCC(=O)NCCCOCCOCCOCCCNC(=O)CCCC[C@@H]1SC[C@@H]2NC(=O)N[C@@H]21)[C@@H](C)O)C(=O)N[C@H](C(=O)N[C@@H](CCCNC(=N)N)C(=O)N[C@H](C(=O)O)C(C)C)[C@@H](C)O [PTEN_KR] ({X1-Suc}-DEDQHTQITRV-OH)
-0.089

[in] Returns the measured BI for the input compound. Input: CC[C@H](C)[C@H](NC(=O)[C@H](CCC(N)=O)NC(=O)[C@@H](NC(=O)[C@H](Cc1c[nH]cn1)NC(=O)[C@H](CCC(N)=O)NC(=O)[C@H](CC(=O)O)NC(=O)[C@H](CCC(=O)O)NC(=O)[C@H](CC(=O)O)NC(=O)CCC(=O)NCCCOCCOCCOCCCNC(=O)CCCC[C@@H]1SC[C@@H]2NC(=O)N[C@@H]21)[C@@H](C)O)C(=O)N[C@H](C(=O)N[C@@H](CCCCN)C(=O)N[C@H](C(=O)O)C(C)C)[C@@H](C)O
[out] 0.028

* * *

Target: LIMK2-1 (Homo sapiens)
Sequence (P53671 152-239): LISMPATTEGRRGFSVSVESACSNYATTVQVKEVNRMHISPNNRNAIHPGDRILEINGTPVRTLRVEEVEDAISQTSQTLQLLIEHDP
Experiment: Holdup assay, LIMK2-1
Type: binding
*1 amine or outer side, *2 acyl side, *3 side chain or, on linkers, in order; H or OH if unused. Where a SMILES comes first, the peptide text is derived from it. The star is where a group is joined. X1 = O=C(CCCC[C@@H]1SC[C@@H]2NC(=O)N[C@@H]21)NCCCOCCOCCOCCCN*; Suc = O=C(CCC(=O)[*:2])[*:1]
Task for the reader: assign each of the following molecules its reported BI.

State recorded BI for all listed molecules.
1. CC[C@H](C)[C@H](NC(=O)[C@H](CCC(N)=O)NC(=O)[C@@H](NC(=O)[C@H](Cc1c[nH]cn1)NC(=O)[C@H](CCC(N)=O)NC(=O)[C@H](CC(=O)O)NC(=O)[C@H](CCC(=O)O)NC(=O)[C@H](CC(=O)O)NC(=O)[C@H](Cc1ccccc1)NC(=O)[C@@H]1CCCN1C(=O)CCC(=O)NCCCOCCOCCOCCCNC(=O)CCCC[C@@H]1SC[C@@H]2NC(=O)N[C@@H]21)[C@@H](C)O)C(=O)N[C@H](C(=O)N[C@@H](CCCCN)C(=O)N[C@H](C(=O)O)C(C)C)[C@@H](C)O [PTEN_13] ({X1-Suc}-PFDEDQHTQITKV-OH)
2. CC[C@H](C)[C@H](NC(=O)[C@H](CCC(N)=O)NC(=O)[C@@H](NC(=O)[C@H](Cc1c[nH]cn1)NC(=O)[C@H](CCC(N)=O)NC(=O)[C@H](CC(=O)O)NC(=O)[C@H](CCC(=O)O)NC(=O)[C@H](CC(=O)O)NC(=O)CCC(=O)NCCCOCCOCCOCCCNC(=O)CCCC[C@@H]1SC[C@@H]2NC(=O)N[C@@H]21)[C@@H](C)O)C(=O)N[C@H](C(=O)N[C@@H](CCCCN)C(=O)N[C@H](C(=O)O)C(C)C)[C@@H](C)O [PTEN_11]
3. CC[C@H](C)[C@H](NC(=O)[C@H](CCC(N)=O)NC(=O)[C@@H](NC(=O)[C@H](Cc1c[nH]cn1)NC(=O)[C@H](CCC(N)=O)NC(=O)[C@H](CC(=O)O)NC(=O)[C@H](CCC(=O)O)NC(=O)[C@H](CC(=O)O)NC(=O)CCC(=O)NCCCOCCOCCOCCCNC(=O)CCCC[C@@H]1SC[C@@H]2NC(=O)N[C@@H]21)[C@@H](C)O)C(=O)N[C@H](C(=O)N[C@@H](CCCNC(=N)N)C(=O)N[C@H](C(=O)O)C(C)C)[C@@H](C)O [PTEN_KR] ({X1-Suc}-DEDQHTQITRV-OH)

[out]
[0.152, 0.05, -0.042]

* * *

System: 266 human PDZ domains (PDZome)
Assay: Holdup assay (chromatographic retention, PDZome-binding profile, BI)
Design: key: binding intensity: 0.00 = no binding, 1.00 = maximal binding
Conditions: PDZ domain SHROOM2-1
*1 amine or outer side, *2 acyl side, *3 side chain or, on linkers, in order; H or OH if unused. Where a SMILES comes first, the peptide text is derived from it. The star is where a group is joined. X1 = O=C(CCCC[C@@H]1SC[C@@H]2NC(=O)N[C@@H]21)NCCCOCCOCCOCCCN*; Suc = O=C(CCC(=O)[*:2])[*:1]
property.measured: BI

Please review the entries below; each comes with its answer.
CC[C@H](C)[C@H](NC(=O)[C@H](CCC(N)=O)NC(=O)[C@@H](NC(=O)[C@H](Cc1c[nH]cn1)NC(=O)[C@H](CCC(N)=O)NC(=O)[C@H](CC(=O)O)NC(=O)[C@H](CCC(=O)O)NC(=O)[C@H](CC(=O)O)NC(=O)[C@H](Cc1ccccc1)NC(=O)[C@@H]1CCCN1C(=O)CCC(=O)NCCCOCCOCCOCCCNC(=O)CCCC[C@@H]1SC[C@@H]2NC(=O)N[C@@H]21)[C@@H](C)O)C(=O)N[C@H](C(=O)N[C@@H](CCCCN)C(=O)N[C@H](C(=O)O)C(C)C)[C@@H](C)O [PTEN_13] ({X1-Suc}-PFDEDQHTQITKV-OH)
-0.059
CC[C@H](C)[C@H](NC(=O)[C@H](CCC(N)=O)NC(=O)[C@@H](NC(=O)[C@H](Cc1c[nH]cn1)NC(=O)[C@H](CCC(N)=O)NC(=O)[C@H](CC(=O)O)NC(=O)[C@H](CCC(=O)O)NC(=O)[C@H](CC(=O)O)NC(=O)CCC(=O)NCCCOCCOCCOCCCNC(=O)CCCC[C@@H]1SC[C@@H]2NC(=O)N[C@@H]21)[C@@H](C)O)C(=O)N[C@H](C(=O)N[C@@H](CCCNC(=N)N)C(=O)N[C@H](C(=O)O)C(C)C)[C@@H](C)O [PTEN_KR] ({X1-Suc}-DEDQHTQITRV-OH)
0.058

[in] Returns the measured BI for the input compound. Input: CC[C@H](C)[C@H](NC(=O)[C@H](CCC(N)=O)NC(=O)[C@@H](NC(=O)[C@H](Cc1c[nH]cn1)NC(=O)[C@H](CCC(N)=O)NC(=O)[C@H](CC(=O)O)NC(=O)[C@H](CCC(=O)O)NC(=O)[C@H](CC(=O)O)NC(=O)CCC(=O)NCCCOCCOCCOCCCNC(=O)CCCC[C@@H]1SC[C@@H]2NC(=O)N[C@@H]21)[C@@H](C)O)C(=O)N[C@H](C(=O)N[C@@H](CCCCN)C(=O)N[C@H](C(=O)O)C(C)C)[C@@H](C)O [PTEN_11]
[out] 0.022
